Target: T1, recombinant human PAD4 (human, UniProt Q9UM07 1-663)
T1 construct: also called rhPAD4; hPAD4
T1 sequence (Q9UM07 whole entry): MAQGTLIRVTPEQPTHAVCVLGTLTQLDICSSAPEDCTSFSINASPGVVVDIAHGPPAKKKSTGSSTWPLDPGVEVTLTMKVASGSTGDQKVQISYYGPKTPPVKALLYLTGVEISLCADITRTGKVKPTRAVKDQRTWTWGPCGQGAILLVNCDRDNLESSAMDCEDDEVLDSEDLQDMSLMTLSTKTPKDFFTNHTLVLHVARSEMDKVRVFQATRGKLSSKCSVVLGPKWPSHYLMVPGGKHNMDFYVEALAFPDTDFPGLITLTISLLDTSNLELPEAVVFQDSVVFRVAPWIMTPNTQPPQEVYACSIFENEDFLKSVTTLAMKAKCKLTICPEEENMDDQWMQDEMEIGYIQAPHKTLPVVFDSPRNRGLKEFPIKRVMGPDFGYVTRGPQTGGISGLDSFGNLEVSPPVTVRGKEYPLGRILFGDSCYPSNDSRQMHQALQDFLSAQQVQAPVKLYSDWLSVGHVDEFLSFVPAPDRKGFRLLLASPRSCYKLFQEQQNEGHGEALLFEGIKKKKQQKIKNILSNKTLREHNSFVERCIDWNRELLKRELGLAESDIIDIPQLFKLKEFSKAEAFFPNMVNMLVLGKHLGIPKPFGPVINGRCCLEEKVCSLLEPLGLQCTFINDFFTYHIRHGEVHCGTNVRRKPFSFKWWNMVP
Assay: SPR 37 C, captured antibody, PAD4 analyte, 1 mM CaCl2
Property: koff; scope: individual binders
Unit s⁻¹ implied. Number only.

See these solved cases before continuing.
1. hz20-12 (antibody, V domains shown, light constant region not tied to this antibody) VH: QVQLVQSGAEVAKPGASVKVSCKASGYTFTNYGISWVRQRPGQGLEWMGEIYPRSGNTYHNEKFKDRVTMTTDTSTSTAYMELRSLRSEDTAVYYCARSMITTRYWYFDVWGKGTTVTVSS VL: DIVMTQSPDSLAVSLGERATINCRASESVDTYGNSFMHWYQQKPGQPPKLLIYLASNLESGVPDRFSGSGSGTDFTLTIDSLQAEDVAVYYCQQNNEDPLTFGQGTKLEIK; 0.00019
2. hz13-8 (antibody, V domains shown, light constant region not tied to this antibody) VH: EVLLVQSGAEVKKPGASVKLSCTSSDFNIKDHFIHWVRQAPGKGLEWIGRIDPEDDETKYAPKFQDRVTITADTSTDTAYLELSSLRSEDTAVFYCAGYGNYEGAMDYWGQGTLVTVSS VL: DIQMTQSPSSLSASVGDRVTITCRASENVNNYGIGFMNWFQQKPGKAPKLLIYAASRRGSGVPSRFSGSGSGTDFTLTISSLQPEDFATYFCQQSKEVPYTFGQGTKVEIK; 0.00014
3. hz13-7 (antibody, V domains shown, light constant region not tied to this antibody) VH: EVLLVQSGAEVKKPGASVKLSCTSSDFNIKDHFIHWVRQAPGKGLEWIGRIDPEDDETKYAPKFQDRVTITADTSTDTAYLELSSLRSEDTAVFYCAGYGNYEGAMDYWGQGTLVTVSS VL: DIQMTQSPSSLSASVGDRVTITCRASENVNNYGIGFMNWYQQKPGKAPKLLIYAASRRGSGVPSRFSGSGSGTDFTLTISSLQPEDFATYYCQQSKEVPYTFGQGTKVEIK; 0.00015
4. hz13-2 (antibody, V domains shown, light constant region not tied to this antibody) VH: EVQLVQSGAEVKKPGASVKVSCTSSDFNIKDHFIHWVRQAPGKGLEWMGRIDPEDDETKYAPKFQDRVTMTADTSTDTAYMELSSLRSEDTAVYYCAGYGNYEGAMDYWGQGTLVTVSS VL: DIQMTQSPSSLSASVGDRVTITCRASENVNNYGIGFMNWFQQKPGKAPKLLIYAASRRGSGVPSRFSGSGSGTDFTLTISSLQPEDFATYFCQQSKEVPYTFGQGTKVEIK; 0.00012
5. hz13-3 (antibody, V domains shown, light constant region not tied to this antibody) VH: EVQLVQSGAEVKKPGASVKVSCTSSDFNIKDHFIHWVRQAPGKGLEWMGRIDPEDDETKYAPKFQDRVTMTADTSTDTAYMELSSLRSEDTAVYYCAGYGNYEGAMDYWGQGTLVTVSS VL: DIVMTQSPSSLSASVGDRVTLTCRASENVNNYGIGFMNWFQQKPGKAPKLLIYAASRRGSGVPSRFSGSGSGTDFTLTISSMQPEDFATYFCQQSKEVPYTFGQGTKLEIK; 0.00013

From here, focus on the item given below.
Input line: Look at this binder and give its reported koff. hz20-9 (antibody, V domains shown, light constant region not tied to this antibody) VH: QVQLVQSGAEVKKPGASVKVSCKASGYTFTNYGISWVRQAPGQGLEWMGEIYPRSGNTYHNEKFKDRVTMTTDKSTSTAYMELRSLRSDDTAVYYCARSMITTRYWYFDVWGKGTTVTVSS VL: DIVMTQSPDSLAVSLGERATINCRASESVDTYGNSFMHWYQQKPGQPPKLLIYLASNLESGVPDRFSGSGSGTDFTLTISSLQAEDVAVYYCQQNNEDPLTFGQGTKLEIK
Output line: 0.00015
